FYI, the data here is from patent US4262015A.

assay: in vivo; conditions: mouse, po
MEASURED PROPERTY: LD50

* CN(C(=O)Oc1cccc2ccccc12)[S+]([O-])SC(C)(C)C (stereo not shown) | > 1000 mg/kg
* CN(C(=O)Oc1cccc2ccccc12)[S+]([O-])Sc1ccccc1 (stereo not shown) | > 1000 mg/kg
* CNC(=O)Oc1cccc2c1OC(C)(C)C2 [carbofuran, reference compound] | 2 to 8 mg/kg

# ---- query molecule ----
Lab book: LD50 of Cc1cc(C(C)(C)C)ccc1S[S+]([O-])N(C)C(=O)Oc1ccccc1OC(C)C (stereo not shown) noted as > 1000 mg/kg
